target: human TAS1R2-WT (subunit alone) (Homo sapiens, UniProt Q8TE23); experiment: Calcium mobilisation assay, TAS1R2-WT subunit alone
Sequence (Q8TE23 20-839): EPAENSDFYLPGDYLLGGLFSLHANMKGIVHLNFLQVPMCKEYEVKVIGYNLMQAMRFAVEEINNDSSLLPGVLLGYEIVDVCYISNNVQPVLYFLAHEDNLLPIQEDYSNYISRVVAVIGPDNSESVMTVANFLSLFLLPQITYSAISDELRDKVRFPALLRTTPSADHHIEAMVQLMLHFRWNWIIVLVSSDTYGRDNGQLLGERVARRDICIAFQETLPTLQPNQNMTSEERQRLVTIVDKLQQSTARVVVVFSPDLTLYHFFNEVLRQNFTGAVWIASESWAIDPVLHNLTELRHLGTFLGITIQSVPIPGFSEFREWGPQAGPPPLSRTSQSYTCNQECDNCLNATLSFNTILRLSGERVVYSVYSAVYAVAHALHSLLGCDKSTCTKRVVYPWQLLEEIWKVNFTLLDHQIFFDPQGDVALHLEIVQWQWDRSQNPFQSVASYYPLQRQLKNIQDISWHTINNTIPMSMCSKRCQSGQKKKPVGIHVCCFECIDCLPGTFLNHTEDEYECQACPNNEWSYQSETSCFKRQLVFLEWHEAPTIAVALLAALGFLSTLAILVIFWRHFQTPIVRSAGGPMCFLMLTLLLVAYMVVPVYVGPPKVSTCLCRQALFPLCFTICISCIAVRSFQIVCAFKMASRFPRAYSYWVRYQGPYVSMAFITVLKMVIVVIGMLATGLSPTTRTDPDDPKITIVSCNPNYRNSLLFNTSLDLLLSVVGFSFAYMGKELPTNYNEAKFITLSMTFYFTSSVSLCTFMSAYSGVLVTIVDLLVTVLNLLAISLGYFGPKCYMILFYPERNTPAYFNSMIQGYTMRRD
PROPERTY LABEL: EC50 (µM)
The answer is to be given in µM; state only the numeric part.

May I ask what EC50 has been recorded for C=C(C)[C@@H]1CC=C(/C=N/O)CC1 ?
90

* * *

molecular target: human TAS1R2-I234V/TAS1R3-WT (Homo sapiens, UniProt Q7RTX0+Q8TE23, I234V); construct: expressed in transfected cells; host or cells: HEK293T-Gα16gust44; assay: Calcium mobilisation assay, TAS1R2 variant I234V with TAS1R3-WT; format: cell-based
Sequence (Q8TE23 20-839 I234V): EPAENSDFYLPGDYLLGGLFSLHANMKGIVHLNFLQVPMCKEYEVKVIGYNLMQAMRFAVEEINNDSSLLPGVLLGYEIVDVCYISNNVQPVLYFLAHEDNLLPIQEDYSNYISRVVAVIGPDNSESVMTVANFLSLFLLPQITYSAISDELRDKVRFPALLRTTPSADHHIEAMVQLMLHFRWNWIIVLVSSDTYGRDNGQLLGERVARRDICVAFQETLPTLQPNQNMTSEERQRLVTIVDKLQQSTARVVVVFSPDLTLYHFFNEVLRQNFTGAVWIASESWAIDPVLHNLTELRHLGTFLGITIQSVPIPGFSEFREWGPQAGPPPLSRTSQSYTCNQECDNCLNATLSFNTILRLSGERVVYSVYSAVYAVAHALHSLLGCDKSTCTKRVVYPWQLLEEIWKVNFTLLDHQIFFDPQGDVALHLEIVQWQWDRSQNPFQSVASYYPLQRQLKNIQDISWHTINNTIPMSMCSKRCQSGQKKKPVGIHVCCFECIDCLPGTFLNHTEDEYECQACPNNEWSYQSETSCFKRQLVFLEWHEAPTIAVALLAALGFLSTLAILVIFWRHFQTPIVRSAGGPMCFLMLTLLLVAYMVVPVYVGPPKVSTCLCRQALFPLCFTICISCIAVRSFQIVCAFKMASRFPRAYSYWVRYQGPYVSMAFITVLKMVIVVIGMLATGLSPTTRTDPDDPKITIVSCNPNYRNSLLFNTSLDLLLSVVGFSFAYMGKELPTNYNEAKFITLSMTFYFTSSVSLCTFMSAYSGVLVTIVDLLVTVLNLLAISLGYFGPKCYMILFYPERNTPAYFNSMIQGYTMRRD
Sequence (Q7RTX0 21-852): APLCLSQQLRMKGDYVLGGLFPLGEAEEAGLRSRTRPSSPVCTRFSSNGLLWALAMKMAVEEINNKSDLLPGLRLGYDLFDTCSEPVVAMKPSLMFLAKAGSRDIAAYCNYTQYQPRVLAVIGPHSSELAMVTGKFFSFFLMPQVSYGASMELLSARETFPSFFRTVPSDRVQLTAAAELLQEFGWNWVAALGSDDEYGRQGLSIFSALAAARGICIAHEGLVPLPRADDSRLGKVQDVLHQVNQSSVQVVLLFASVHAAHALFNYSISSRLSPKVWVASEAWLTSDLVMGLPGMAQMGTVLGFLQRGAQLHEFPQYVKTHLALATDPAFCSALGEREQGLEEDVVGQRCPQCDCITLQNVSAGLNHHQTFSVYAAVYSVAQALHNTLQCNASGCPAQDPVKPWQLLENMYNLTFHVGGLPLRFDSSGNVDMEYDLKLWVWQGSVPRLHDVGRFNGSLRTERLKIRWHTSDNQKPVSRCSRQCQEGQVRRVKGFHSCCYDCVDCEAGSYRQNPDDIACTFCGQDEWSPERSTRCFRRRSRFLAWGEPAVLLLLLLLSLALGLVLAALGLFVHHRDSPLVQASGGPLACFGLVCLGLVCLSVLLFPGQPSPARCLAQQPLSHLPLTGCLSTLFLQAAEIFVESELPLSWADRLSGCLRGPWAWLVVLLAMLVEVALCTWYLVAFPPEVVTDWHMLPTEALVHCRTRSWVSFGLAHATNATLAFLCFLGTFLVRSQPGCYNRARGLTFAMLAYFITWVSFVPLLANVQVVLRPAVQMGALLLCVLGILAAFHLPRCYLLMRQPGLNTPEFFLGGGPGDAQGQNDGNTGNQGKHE
PROPERTY LABEL: R1 = Variant EC50/WT EC50
A bare number is all that is needed in reply.

May I ask what R1 = Variant EC50/WT EC50 has been recorded for C=C1C[C@@]23CC[C@H]4[C@@](C)(CCC[C@@]4(C)C(=O)O[C@@H]4O[C@H](CO)[C@@H](O)[C@H](O[C@@H]5O[C@H](CO)[C@@H](O)[C@H](O)[C@H]5O)[C@H]4O[C@@H]4O[C@H](CO)[C@@H](O)[C@H](O)[C@H]4O)[C@@H]2CC[C@]1(O[C@@H]1O[C@H](CO)[C@@H](O)[C@H](O[C@@H]2O[C@H](CO)[C@@H](O)[C@H](O)[C@H]2O)[C@H]1O[C@@H]1O[C@H](CO)[C@@H](O)[C@H](O)[C@H]1O)C3 [Rebaudioside M, rebaudioside M] ?
1.1

May I ask what R1 = Variant EC50/WT EC50 has been recorded for COC(=O)[C@H](Cc1ccccc1)NC(=O)[C@H](CC(=O)O)NCCC(C)(C)C [Neotame] ?
1.0

May I ask what R1 = Variant EC50/WT EC50 has been recorded for OC[C@H]1O[C@H](O[C@]2(CCl)O[C@H](CCl)[C@@H](O)[C@@H]2O)[C@H](O)[C@@H](O)[C@H]1Cl [Sucralose] ?
0.7

May I ask what R1 = Variant EC50/WT EC50 has been recorded for CC1=CC(=O)NS(=O)(=O)O1 [Acesulfame K, acesulfame K] ?
0.7

May I ask what R1 = Variant EC50/WT EC50 has been recorded for COc1ccc(CCC(=O)c2c(O)cc(O[C@@H]3O[C@H](CO)[C@@H](O)[C@H](O)[C@H]3O[C@@H]3O[C@@H](C)[C@H](O)[C@@H](O)[C@H]3O)cc2O)cc1O [NHDC, neohesperidin dihydrochalcone] ?
1.2
